test: compound binding in COS7 lysate, probe aLAP1, primary screen, cell lysate, small-molecule microarray (AID 1124); conditions: probe aLAP1, fluorescence, higher = more signal;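 note: lysate comes from COS7 cells expressing LAP1 and is applied at 0.3 µg/mL; score merges spot fluorescence near 667 nm with signal-to-noise over triplicate slides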
Measured composite z-score, listed per entry.
I'd appreciate a reply containing only the number, no unit.

Ask: Item `COCCOC(=O)N1C(=O)[C@@]2(c3cc(C#Cc4ccc(OC)cc4)ccc31)[C@H](c1ccccc1OCCO)N1[C@H](c3ccccc3)[C@H](c3ccccc3)OC(=O)[C@H]1[C@@H]2C(=O)N1CCCCCCC1` has what recorded composite z-score?
Reply: 0.512

Ask: Item N#Cc1ccc(NN2C(C(O)c3ccc(F)cc3)C=CC3C(=O)N(c4ccccc4)C(=O)C32)cc1 (configuration not stated) has what recorded composite z-score?
Reply: 0.905

Ask: Item O=C1NC(=O)C2C1C=CC(C(O)c1c(F)cccc1Cl)N2Nc1ccc(Cl)cc1Cl (configuration not stated) has what recorded composite z-score?
Reply: 1.12

Ask: Item `COc1ccc([Si](C)(C)[C@@H]2[C@@H](CCn3cc([C@H](O)c4ccccc4)nn3)O[C@]3(C(=O)N(Cc4ccc(N5CCC5=O)cc4)c4ccccc43)[C@H]2C)cc1` has what recorded composite z-score?
Reply: -0.426

Ask: Item CN1C(=O)C2C=CC(C(O)c3ccc(F)cc3)N(Nc3ccccc3)C2C1=O (configuration not stated) has what recorded composite z-score?
Reply: -0.481

Ask: Item CN1C(=O)C2C=CC(C(O)C#Cc3ccccc3)N(Nc3ccccc3)C2C1=O (configuration not stated) has what recorded composite z-score?
Reply: 0.553

Ask: Item `COc1ccc(NC(=O)O[C@H]2[C@H](OC(=O)Nc3ccccc3)[C@@H](OC(=O)Nc3ccccc3)[C@@H](OC)O[C@@H]2CO)cc1` has what recorded composite z-score?
Reply: 0.624
